System: HCT116
Assay: Toxicity test on cells, HCT116
Format: cell-based
Conditions: Homo sapiens, HCT-116; 48 hours of treatment, Hoechst nuclei staining
pIC50: −log10 of the molar value. Structures can show the parent of a compound that is named as a salt.
Label Y when pIC50 is at or above 5; otherwise label N.

# compound, class-assignment
measured = [
    ("COCc1cn(Cc2cnc3c(N4CCOCC4)nc(-c4ccc(NC(=O)Nc5ccc(CO)cc5)cc4)nc3c2)nn1 [Compound 81]", "Y"),
    ("C=Cc1cnc2c(N3CCOCC3)nc(-c3ccc(O)cc3)nc2c1 [Compound 16]", "N"),
    ("Oc1cccc(-c2nc(N3CCOCC3)c3ncc(CNC4CCCCC4)cc3n2)c1 [Compound 28, hydrochloride]", "N"),
    ("[N-]=[N+]=NCc1cnc2c(N3CCOCC3)nc(-c3cccc(O)c3)nc2c1 [Compound 39]", "Y"),
    ("C=Cc1cnc2c(N3CCOCC3)nc(-c3cccc(CO)c3)nc2c1 [Compound 17]", "Y"),
]

query: Given Oc1cccc(-c2nc(N3CCOCC3)nc3cc(Cl)cnc23)c1 [Compound 51] , state whether its pIC50 is at least 5.
result: N

query: Subsequent entry: COc1ccc(-c2nc(N3CCOCC3)c3ncc(Cl)cc3n2)cc1 [Compound 9]
result: N

query: Subsequent entry: OCC(O)c1cnc2c(N3CCOCC3)nc(-c3cccc(O)c3)nc2c1 (centres unmarked) [Compound 22]
result: Y

query: Now this one: OCc1cccc(-c2nc(N3CCOCC3)c3ncc(Cl)cc3n2)c1 [Compound 8]
result: Y

---

Molecular target: PI3Kδ (Homo sapiens, UniProt O00329)
Sequence (O00329 whole entry): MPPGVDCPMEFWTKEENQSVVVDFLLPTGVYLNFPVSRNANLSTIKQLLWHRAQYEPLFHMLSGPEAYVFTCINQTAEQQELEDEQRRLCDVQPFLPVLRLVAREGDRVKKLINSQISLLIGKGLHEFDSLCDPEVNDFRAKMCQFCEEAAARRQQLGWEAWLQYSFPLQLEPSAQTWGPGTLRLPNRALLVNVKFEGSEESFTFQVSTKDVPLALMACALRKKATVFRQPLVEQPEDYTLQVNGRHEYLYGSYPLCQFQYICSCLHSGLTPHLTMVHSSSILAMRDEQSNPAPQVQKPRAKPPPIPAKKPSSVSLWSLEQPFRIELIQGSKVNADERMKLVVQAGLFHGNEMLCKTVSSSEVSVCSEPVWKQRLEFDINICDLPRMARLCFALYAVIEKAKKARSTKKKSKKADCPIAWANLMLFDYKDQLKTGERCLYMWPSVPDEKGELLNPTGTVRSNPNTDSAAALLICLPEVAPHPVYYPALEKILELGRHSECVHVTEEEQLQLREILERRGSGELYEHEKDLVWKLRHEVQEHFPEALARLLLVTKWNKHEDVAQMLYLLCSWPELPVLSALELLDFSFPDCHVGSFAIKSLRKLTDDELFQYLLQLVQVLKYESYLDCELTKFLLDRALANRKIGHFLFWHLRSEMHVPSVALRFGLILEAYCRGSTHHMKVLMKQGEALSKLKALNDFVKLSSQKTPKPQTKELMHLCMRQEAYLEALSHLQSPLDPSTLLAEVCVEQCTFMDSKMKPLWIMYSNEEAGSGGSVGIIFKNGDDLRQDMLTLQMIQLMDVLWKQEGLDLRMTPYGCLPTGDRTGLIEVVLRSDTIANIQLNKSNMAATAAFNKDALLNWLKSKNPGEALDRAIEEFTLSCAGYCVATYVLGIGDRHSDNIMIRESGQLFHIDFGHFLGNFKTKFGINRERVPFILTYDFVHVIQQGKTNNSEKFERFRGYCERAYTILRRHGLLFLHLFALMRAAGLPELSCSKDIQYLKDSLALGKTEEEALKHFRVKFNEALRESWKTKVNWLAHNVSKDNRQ
Sequence (P27986 whole entry partner): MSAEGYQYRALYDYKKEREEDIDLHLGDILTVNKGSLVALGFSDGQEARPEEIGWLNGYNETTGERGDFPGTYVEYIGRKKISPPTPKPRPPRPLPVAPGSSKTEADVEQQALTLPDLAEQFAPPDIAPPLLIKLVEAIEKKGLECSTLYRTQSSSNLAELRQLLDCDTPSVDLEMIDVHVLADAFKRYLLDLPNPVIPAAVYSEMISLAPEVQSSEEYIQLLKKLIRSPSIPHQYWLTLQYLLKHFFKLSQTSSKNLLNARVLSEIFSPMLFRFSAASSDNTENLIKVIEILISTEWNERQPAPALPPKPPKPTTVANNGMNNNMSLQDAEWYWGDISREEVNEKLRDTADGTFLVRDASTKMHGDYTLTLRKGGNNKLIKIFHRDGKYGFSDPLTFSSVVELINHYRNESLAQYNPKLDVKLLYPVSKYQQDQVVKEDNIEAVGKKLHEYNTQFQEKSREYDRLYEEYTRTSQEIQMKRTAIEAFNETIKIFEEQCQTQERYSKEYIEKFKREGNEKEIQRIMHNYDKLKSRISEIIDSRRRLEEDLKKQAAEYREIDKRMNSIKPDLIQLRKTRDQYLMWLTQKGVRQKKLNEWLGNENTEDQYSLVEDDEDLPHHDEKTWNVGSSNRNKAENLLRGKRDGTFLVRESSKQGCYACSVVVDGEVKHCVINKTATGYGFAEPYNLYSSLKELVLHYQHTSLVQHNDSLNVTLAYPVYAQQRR
Assay: PI3Kδ kinase activity, Adapta TR-FRET ADP detection
Conditions: purified p110δ/p85α heterodimer; read-out: Kinases IC50 PI3Kδ
Where a name gives a salt, the structure may show the parent alone.
Here, each record is paired with measured log10(IC50) data.
Would you kindly interpret these values as log10 of IC50 expressed in nM?

The cases that follow already have their log10(IC50) on record.
# molecule, readout-number
rows = [
    ("CN1CCN(Cc2cnc3c(N4CCOCC4)nc(-c4cccc(O)c4)nc3c2)CC1 [Compound 30, hydrochloride]", 2.20),
    ("Oc1cccc(-c2nc(N3CCOCC3)nc3cc(Cl)cnc23)c1 [Compound 51]", 3.59),
    ("O=CCCc1cnc2c(N3CCOCC3)nc(-c3cccc(O)c3)nc2c1 [Compound 46]", 1.91),
    ("COc1ccc(-c2nc(N3CCOCC3)c3ncc(Cl)cc3n2)cc1 [Compound 9]", 2.56),
]

For the next question, use this molecule.
query: Report log10(IC50) for C=Cc1cnc2c(N3CCOCC3)nc(-c3cccc(O)c3)nc2c1 [Compound 14] please.
result: 1.04

---

Quick list: IC50 per entry.
Tested on: CaCo2
Experiment: Toxicity test on cells, CaCo2
Assay type: cell-based
Settings: Homo sapiens, Caco-2; 48 hours of treatment, Hoechst nuclei staining
Numbers only; they are read as µM.

# compound, target-desc, unit-abbrev, IC50
records = [
    ("C=Cc1cnc2c(N3CCOCC3)nc(-c3cccc(O)c3)nc2c1 [Compound 14]", "CaCo2", "µM", 1.5),
]

query: Field request: IC50 | item: Oc1cccc(-c2nc(N3CCOCC3)c3ncc(Cl)cc3n2)c1 [Compound 6]
result: 8
